Entry source: patent US11111259B2

- System: IMR-90 SnC (irradiated senescent IMR90 cells)
- method.description: Senolysis assay (CellTiter-Glo viability)
- Assay type: cell-based, human
- reported.conditions: Homo sapiens, IMR-90, light or radiation study, 72 h; X-ray irradiated senescent IMR90 cells, viability three days after compound addition
Give measured EC50 for each item. Keep answers brief.

Query: Record request: EC50 value, item CCOP(=O)(C=C1CCN(CC[C@H](CSc2ccccc2)Nc2ccc(S(=O)(=O)NC(=O)c3ccc(N4CCN(CC5=C(c6ccc(Cl)cc6)CCC(C)(C)C5)CC4)cc3)cc2S(=O)(=O)C(F)(F)F)CC1)OCC [Compound 41]
Reply: < 1 µM

Query: Record request: EC50 value, item CC1(C)CCC(c2ccc(Cl)cc2)=C(CN2CCN(c3ccc(C(=O)NS(=O)(=O)c4ccc(N[C@H](CCN5CCC(CP(=O)(OCOC(=O)C(C)(C)C)OCOC(=O)C(C)(C)C)CC5)CSc5ccccc5)c(S(=O)(=O)C(F)(F)F)c4)cc3)CC2)C1 [Compound 46]
Reply: > 10 µM

Query: Record request: EC50 value, item CCOP(=O)(CN1CCN(CC[C@H](CSc2ccccc2)Nc2ccc(S(=O)(=O)NC(=O)c3ccc(N4CCN(Cc5ccccc5-c5ccc(Cl)cc5)CC4)cc3)cc2S(=O)(=O)C(F)(F)F)CC1)OCOC(=O)C(C)(C)C (stereo partly drawn) [Compound 54]
Reply: 1 to 10 µM
